From: paper PMC7819943

Quick reference: binding signal of the listed items.
EXPERIMENTAL_TARGET: OsSMF1 (Oryza sativa, UniProt Q6ZLB0 1-436)
Sequence: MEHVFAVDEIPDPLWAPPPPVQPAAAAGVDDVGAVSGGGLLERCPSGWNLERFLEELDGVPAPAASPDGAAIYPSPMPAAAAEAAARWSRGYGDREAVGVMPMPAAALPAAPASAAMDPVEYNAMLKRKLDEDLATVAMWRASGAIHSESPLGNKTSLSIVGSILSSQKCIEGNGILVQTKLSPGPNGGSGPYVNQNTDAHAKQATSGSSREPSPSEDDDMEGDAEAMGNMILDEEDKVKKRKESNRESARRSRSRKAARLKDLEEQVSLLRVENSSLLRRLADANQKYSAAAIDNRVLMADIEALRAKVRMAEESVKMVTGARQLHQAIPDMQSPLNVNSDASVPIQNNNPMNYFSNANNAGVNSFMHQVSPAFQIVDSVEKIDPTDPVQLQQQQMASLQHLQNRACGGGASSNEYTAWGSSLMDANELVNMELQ
ASSAY_EXPLANATION: protein-binding microarray (RPBM); PBS, 2% BSA, 51.3 ng/ul salmon testes DNA, 50 uM zinc acetate, 200 nM TF, 25 C, 1 h; high values mean tight binding
ASSAY_CONDITIONS: protein: recombinant; tags: N-terminal polyhistidine and DsRed monomer fusion (pET32a); chain copies: 2; label: CyDye5-dUTP incorporated in the synthesized complementary strand; 3' TTTTT single-stranded linker to array surface; dsDNA, one strand shown
Over roughly 39,000 sequences, “fluorescence intensity (a.u.)” has its median near 4,300; the highest 2% begin near 39,000. What follows is part of a selection rich in the highest values, with near analogues and random picks from the rest.

SEQUENCE_DATA	binding signal
AGAGAATTATGGAGAGGGGAGGGGAGGGGCAGCAAAAGAGCGGAGTCACCTAGTGCAG	4210 fluorescence intensity (a.u.)
AAACAACCAACTTTGCCTGCAAAACGGCAAAGAGATTAACCGGAGTCACCTAGTGCAG	3920 fluorescence intensity (a.u.)
TGAGGATGCAAGAGAATCCTAAAAGGTAAGGCAGCATGCACGGAGTCACCTAGTGCAG	44100 fluorescence intensity (a.u.)

Answer with the recorded binding signal of `GGATTGACGGGGACGCGGTGGTGGCGCCAACGGATGGACGCGGAGTCACCTAGTGCAG` only. 6220 fluorescence intensity (a.u.)

Identify measured binding signal corresponding to `CGGCGCCTAGACTGCGTATCGTAGCTGTCGAACGTGTCGTCGGAGTCACCTAGTGCAG` 3640 fluorescence intensity (a.u.)

Kindly indicate its recorded binding signal. Item: `AGAATCGCTTATATTATGGGACGGACGTAACATATAGAAGCGGAGTCACCTAGTGCAG` 41100 fluorescence intensity (a.u.)

Quickly give me recorded binding signal for `TAAAATTTAAATTTTGGCTAATAAGTATAAGCATAACTGTCGGAGTCACCTAGTGCAG` 34300 fluorescence intensity (a.u.)

Please list binding signal recorded for the sequence `TTTTCGGATCAAATTGCCACGTAAGCGCCACGTCAGATGACGGAGTCACCTAGTGCAG` 16000 fluorescence intensity (a.u.)

Note down binding signal recorded for `AACATATTAGAATATCGGTCTTAAATTAAATCCCATATAACGGAGTCACCTAGTGCAG` 29100 fluorescence intensity (a.u.)

Look up and report measured binding signal for this entry: `ACTCGCCTGGAAACCGTGAGATGAATTTATTAAGCCTAATCGGAGTCACCTAGTGCAG` 3930 fluorescence intensity (a.u.)

Respond only with binding signal recorded for `TGATTTAAACATGTTATGTAAGGAGAGTTGGAGACAGATACGGAGTCACCTAGTGCAG` 22000 fluorescence intensity (a.u.)

Let me know recorded binding signal for `TCAAATCAAATTGCCACGTAAGCGCCACGTCACTGCCACACGGAGTCACCTAGTGCAG` , thanks. 35200 fluorescence intensity (a.u.)

Look up binding signal of `GCAGCTGAAGTGGACCTGTCAGCAAGTAAAGCCAAGAGGCCGGAGTCACCTAGTGCAG` and report it. 3470 fluorescence intensity (a.u.)

Check the records and state binding signal for `GAAAGGGATGGCTCACTTGAAACGTACTGCTCCCTGCCCCCGGAGTCACCTAGTGCAG` 3160 fluorescence intensity (a.u.)

Input `ATTTTATTATTCTTGCAGATCAAATTGCCACGTAAGCGTCCGGAGTCACCTAGTGCAG` , output reported binding signal. 47800 fluorescence intensity (a.u.)

Complete the entry with binding signal for `ATAAAATTGCCACATAAGCACCACGTCAATGCTATGTGGGCGGAGTCACCTAGTGCAG` 29700 fluorescence intensity (a.u.)

Report binding signal for `GAATTTATGGTTGAATACTTAACTTAAAATCCAAGGAACCCGGAGTCACCTAGTGCAG` 3220 fluorescence intensity (a.u.)
